Molecular target: Gonadotropin-releasing hormone receptor (Rattus norvegicus, UniProt P30969)
Sequence (P30969 whole entry): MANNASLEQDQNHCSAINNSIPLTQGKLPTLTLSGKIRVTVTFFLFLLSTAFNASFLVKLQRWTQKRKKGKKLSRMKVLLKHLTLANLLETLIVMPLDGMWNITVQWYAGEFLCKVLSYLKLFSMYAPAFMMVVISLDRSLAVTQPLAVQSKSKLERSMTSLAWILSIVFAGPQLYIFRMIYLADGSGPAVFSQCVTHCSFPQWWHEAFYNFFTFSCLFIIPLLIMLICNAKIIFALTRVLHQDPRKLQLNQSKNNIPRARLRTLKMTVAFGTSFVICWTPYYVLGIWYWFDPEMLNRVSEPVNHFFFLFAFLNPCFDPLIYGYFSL
Assay endpoint: pKi
The value called pKi is obtained by taking minus log10 of the concentration in mol/L.

Consider CCC(CC)OC(=O)c1cn(Cc2ccccc2F)c2c(C#N)c(-c3ccc(OC)cc3)c(CN(C)CCc3ccccn3)n2c1=O . Its measured pKi is 5.11

----------
Target: Gonadotropin-releasing hormone receptor (Homo sapiens)
Sequence (P30968 whole entry): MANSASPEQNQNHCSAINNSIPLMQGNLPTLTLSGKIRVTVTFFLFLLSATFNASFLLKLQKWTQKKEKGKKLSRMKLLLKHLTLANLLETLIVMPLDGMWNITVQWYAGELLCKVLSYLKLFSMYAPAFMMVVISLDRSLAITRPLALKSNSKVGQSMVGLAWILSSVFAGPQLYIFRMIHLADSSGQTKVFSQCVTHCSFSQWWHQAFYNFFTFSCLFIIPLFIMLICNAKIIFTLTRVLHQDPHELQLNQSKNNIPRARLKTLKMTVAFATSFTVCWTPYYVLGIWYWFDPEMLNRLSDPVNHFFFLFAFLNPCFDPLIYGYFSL
Assay endpoint: Ki

// known answers, use as guide
Smiles entry	Ki
CCOC(=O)c1cn(Cc2ccccc2)c2c(C#N)c(-c3ccc(OC)cc3)c(CN(C)C)n2c1=O	> 50 µM
CCOC(=O)c1cn(Cc2ccc(F)cc2F)c2c(C#N)c(-c3ccc(OCC(C)C)cc3)c(CN(C)CCc3ccncc3)n2c1=O	> 50 µM

Here's the next entry for you.
Case CCOC(=O)c1cn(Cc2ccc(F)cc2F)c2c(C#N)c(-c3ccc(OCC(C)C)cc3)c(CN(C)CCc3ccccc3)n2c1=O , Gonadotropin-releasing hormone receptor (Homo sapiens), Ki recorded as > 50 µM
